target: Alpha-1D adrenergic receptor (Homo sapiens, UniProt P25100)
Sequence (P25100 whole entry): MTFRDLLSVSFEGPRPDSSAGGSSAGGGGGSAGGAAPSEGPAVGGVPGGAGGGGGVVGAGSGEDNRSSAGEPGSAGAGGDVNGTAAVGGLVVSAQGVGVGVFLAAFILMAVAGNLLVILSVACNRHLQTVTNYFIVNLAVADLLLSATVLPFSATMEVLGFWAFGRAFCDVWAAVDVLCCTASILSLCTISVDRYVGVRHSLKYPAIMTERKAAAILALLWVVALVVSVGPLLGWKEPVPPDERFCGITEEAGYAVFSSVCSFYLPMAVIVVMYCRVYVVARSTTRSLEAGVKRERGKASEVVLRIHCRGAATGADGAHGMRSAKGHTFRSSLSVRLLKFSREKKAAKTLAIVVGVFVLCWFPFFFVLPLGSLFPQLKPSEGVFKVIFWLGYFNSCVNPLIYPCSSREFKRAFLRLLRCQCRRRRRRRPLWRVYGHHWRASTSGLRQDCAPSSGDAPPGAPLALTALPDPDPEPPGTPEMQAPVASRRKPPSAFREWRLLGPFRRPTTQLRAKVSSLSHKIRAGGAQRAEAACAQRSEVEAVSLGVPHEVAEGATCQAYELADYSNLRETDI
quantity-name: pKi
Interpret pKi as the negative base-10 log of the concentration measured in mol/L.

query: Lab note: need pKi for CCOc1ccccc1OCCNC(C)Cc1ccc(OC)c(S(N)(=O)=O)c1 (stereo unspecified) on Alpha-1D adrenergic receptor (Homo sapiens, UniProt P25100), anyone have it?
result: 9.70

Values compiled from BindingDB's records for doi:10.1016/j.bmcl.2007.11.068.
